Molecular target: human A1 AdoR (UniProt P30542)
Sequence (P30542 1-326): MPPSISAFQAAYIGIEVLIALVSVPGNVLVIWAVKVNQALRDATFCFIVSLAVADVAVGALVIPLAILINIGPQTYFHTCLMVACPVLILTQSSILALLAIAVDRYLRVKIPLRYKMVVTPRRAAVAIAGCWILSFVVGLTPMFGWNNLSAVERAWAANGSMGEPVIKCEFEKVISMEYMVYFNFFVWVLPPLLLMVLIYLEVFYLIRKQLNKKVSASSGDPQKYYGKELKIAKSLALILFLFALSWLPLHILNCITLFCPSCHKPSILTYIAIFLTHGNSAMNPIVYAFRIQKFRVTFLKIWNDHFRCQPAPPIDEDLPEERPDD
Property label: Ki (nM)
One number for each entry, in nM.

Query: I am curious: what Ki value has been reported for CCn1c(-n2cccn2)nc2c(N)nc(NCc3ccccc3)nc21 ?
Result: 15

The values you see were collected from patent US7022710B2.
